These entries and their values trace back to patent US11919888B2.

Entries and their measured Ki follow.
Target: human NEP (Homo sapiens)
Construct: purchased R&D Systems, Minneapolis, MN 1182-ZN
Sequence (P08473 52-750 limits assumed): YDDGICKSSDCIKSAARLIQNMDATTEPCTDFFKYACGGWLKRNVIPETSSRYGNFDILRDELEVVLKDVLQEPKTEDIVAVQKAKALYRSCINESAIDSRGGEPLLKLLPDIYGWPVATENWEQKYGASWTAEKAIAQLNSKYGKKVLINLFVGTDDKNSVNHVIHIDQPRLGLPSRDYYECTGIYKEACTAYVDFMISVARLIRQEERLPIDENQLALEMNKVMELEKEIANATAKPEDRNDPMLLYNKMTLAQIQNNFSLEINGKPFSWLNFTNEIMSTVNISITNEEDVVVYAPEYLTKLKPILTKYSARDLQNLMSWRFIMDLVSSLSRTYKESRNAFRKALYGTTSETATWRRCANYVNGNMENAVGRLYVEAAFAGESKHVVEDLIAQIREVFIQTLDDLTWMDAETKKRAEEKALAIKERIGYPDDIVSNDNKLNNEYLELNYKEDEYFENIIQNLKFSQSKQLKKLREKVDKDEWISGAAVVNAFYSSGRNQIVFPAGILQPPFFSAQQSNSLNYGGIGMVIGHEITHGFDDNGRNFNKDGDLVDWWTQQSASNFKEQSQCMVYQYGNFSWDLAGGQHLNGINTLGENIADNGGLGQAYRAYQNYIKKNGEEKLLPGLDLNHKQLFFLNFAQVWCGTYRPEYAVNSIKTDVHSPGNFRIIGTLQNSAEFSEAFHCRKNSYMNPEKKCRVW
Assay: In vitro enzyme inhibition assay at human NEP (fluorogenic peptide substrate)
Assay type: biochemical
Settings: recombinant human NEP; 10 μM fluorogenic substrate Mca-D-Arg-Arg-Leu-Dap-(Dnp)-OH; 37° C.; 30 minute preincubation; read-out: pKi value at human NEP (converted)

CCOC[C@](C)(C[C@@H](Cc1ccc(-c2cc(Cl)ccc2F)cc1)NC(=O)c1cc(O)no1)C(=O)O: ≤ 1 nM
COC[C@](C)(C[C@@H](Cc1ccc(-c2ccccc2)cc1)NC(=O)c1c[nH]nn1)C(=O)O: 1 to 3.16 nM
C[C@@](CO)(C[C@@H](Cc1ccc(-c2cccc(Cl)c2)cc1)NC(=O)c1c[nH]nn1)C(=O)O: ≤ 1 nM

[ask] For C[C@@](CO)(C[C@@H](Cc1ccc(-c2cc(Cl)ccc2Cl)cc1)NC(=O)c1c[nH]nn1)C(=O)O , what is its reported Ki?
[reply] ≤ 1 nM
